- tested_system: Human cloned vasopressin V1a receptor in CHO cells (Homo sapiens, UniProt P37288)
- Construct: expressed in transfected cells; host or cells: CHO cells (membrane preparation)
- Sequence (P37288 whole entry): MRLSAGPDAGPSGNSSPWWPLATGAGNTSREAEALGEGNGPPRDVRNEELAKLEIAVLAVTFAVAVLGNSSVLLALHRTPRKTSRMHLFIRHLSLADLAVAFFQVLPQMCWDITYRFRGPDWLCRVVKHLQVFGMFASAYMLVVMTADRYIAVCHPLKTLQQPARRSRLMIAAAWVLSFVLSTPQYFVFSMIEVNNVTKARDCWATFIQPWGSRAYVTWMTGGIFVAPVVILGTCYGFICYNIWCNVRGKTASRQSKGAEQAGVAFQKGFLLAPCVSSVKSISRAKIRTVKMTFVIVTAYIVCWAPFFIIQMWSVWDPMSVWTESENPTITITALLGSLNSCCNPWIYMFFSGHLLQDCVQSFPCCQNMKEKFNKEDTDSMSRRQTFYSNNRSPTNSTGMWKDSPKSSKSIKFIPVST
- experimental_details: Vasopressin V1a receptor binding assay (3H-AVP, filtration)
- recorded_conditions: printed as [6.3 nM OT: 148 nM V1a]; read-out: V1a (vasopressin V1a receptor affinity)
assay_readout: Ki (nM)

Cc1ccccc1N1CCN(S(=O)(=O)CC23CCC(C[C@@H]2NC(=O)[C@@H](N)CCS(C)(=O)=O)C3(C)C)CC1 (stereo partly shown) = 148

Just for reference, patent US20150072995A1 is where these values come from.
